experiment: in vivo; settings: female, BALB/c, mouse, ip, 2 mg/kg, Thalf (elimination half-life)
readout.type: half-life

Which half-life value belongs to Cc1nc(-c2ccc(C3N(C)c4ccc(F)cc4C(=O)N3c3ccccc3)s2)cs1 (stereo not shown) [Retro-2.1] ? 5 h

* * *

assay: in vivo; settings: female, BALB/c, mouse, ip, 50 mg/kg
readout.type: CL/F
Number first, unit second: that is the form wanted.

Which CL/F value belongs to Cc1nc(-c2ccc(C3N(C)c4ccc(F)cc4C(=O)N3c3ccccc3)s2)cs1 (stereo not shown) [Retro-2.1] ? 45 mL/min/kg

* * *

test: in vivo; conditions: female, BALB/c, mouse, iv, 2 mg/kg
readout.type: clearance (mL/min/kg)
State just the number; it will be interpreted in mL/min/kg.

Which clearance value belongs to Cc1nc(-c2ccc(C3N(C)c4ccc(F)cc4C(=O)N3c3ccccc3)s2)cs1 (stereo not shown) ? 157

* * *

test: Pharmacokinetic study in mice, Retro-2.1 in PLGA–PEG–PLGA hydrogel, 25 mg/kg SC; type: in vivo; conditions: female, BALB/c, mouse; SC injection of 25 mg/kg of Retro-2.1 in PLGA–PEG–PLGA, mice plasma
Can you tell me Cmax for the items I'm about to list?
Number first, unit second: that is the form wanted.

Which Cmax value belongs to CN1c2ccc(F)cc2C(=O)N(c2ccccc2)C1c1ccc(-c2csc(CO)n2)s1 (centres unmarked) [compound 3] ? 39.3 ng/mL

Which Cmax value belongs to Cc1nc(-c2ccc(C3N(C)c4ccc(F)cc4C(=O)N3c3ccccc3)s2)cs1 (centres unmarked) [Retro-2.1] ? 75.2 ng/mL

* * *

test: Aqueous solubility; format: physicochemical
readout.type: solubility

Which solubility value belongs to Cc1nc(-c2ccc(C3N(C)c4ccc(F)cc4C(=O)N3c3ccccc3)s2)cs1 (stereo not shown) ? < 1 µg/mL

* * *

experiment: Pharmacokinetic study in mice, Retro-2.1 in PLGA–PEG–PLGA hydrogel, 25 mg/kg SC; format: in vivo; settings: female, BALB/c, mouse, plasma; SC injection of 25 mg/kg of Retro-2.1 in PLGA–PEG–PLGA, mice
Can you tell me MRT for the items I'm about to list?
State just the number; it will be interpreted in h.

Which MRT value belongs to Cc1nc(-c2ccc(C3N(C)c4ccc(F)cc4C(=O)N3c3ccccc3)s2)cs1 (centres unmarked) ? 26

Which MRT value belongs to CN1c2ccc(F)cc2C(=O)N(c2ccccc2)C1c1ccc(-c2csc(CO)n2)s1 (centres unmarked) ? 21

* * *

Can you tell me MRT for the items I'm about to list?
experiment: in vivo; conditions: female, BALB/c, mouse, ip, 50 mg/kg
State just the number; it will be interpreted in h.

Which MRT value belongs to Cc1nc(-c2ccc(C3N(C)c4ccc(F)cc4C(=O)N3c3ccccc3)s2)cs1 (centres unmarked) ? 1

Which MRT value belongs to CN1c2ccc(F)cc2C(=O)N(c2ccccc2)C1c1ccc(-c2csc(CO)n2)s1 (centres unmarked) ? 3.43

* * *

tested on: Shiga-like toxin-1 (Stx-1), HeLa cells; assay: cells; format: cell-based, human; conditions: Homo sapiens, HeLa, read-out: EC50 (Stx-1 intoxication assay)
readout.type: EC50
Number first, unit second: that is the form wanted.

Which EC50 value belongs to Cc1nc(-c2ccc(C3N(C)c4ccc(F)cc4C(=O)N3c3ccccc3)s2)cs1 (centres unmarked) ? 0.09 µM

Which EC50 value belongs to CN1c2ccc(F)cc2C(=O)N(c2ccccc2)C1c1ccc(-c2csc(CO)n2)s1 (centres unmarked) ? 7.38 µM

Source listed as paper PMC9735573.
